assay-overview: Inhibition of actin polarization in Saccharomyces cerevisiae BY4741 at pH 7.5 incubated for 30 mins in presence of 8% glucose by rhodamine phalloidin staining based confocal microscopic analysis
test-readout: IC50
Please state the value followed by its unit.

Prompt: So what's the measured IC50 for this one? CCN(CC)CCCC(C)Nc1c2ccc(Cl)cc2nc2ccc(OC)cc12 (stereo unspecified)
Completion: 1600 µM
